Listing: HPLC purity Day 10 (%) of selected molecules
- protocol_text: Stability investigation of the crystalline forms (HPLC purity, samples placed open and flat)
- Type: physicochemical
- study_conditions: heating at 60° C., Day 10
Quick note: give the figure in %, leave out the unit.

Recorded HPLC purity Day 10 (%), per entry:
COC(=O)[C@H](c1ccccc1Cl)N1CC[C@@H]2SC(=O)C=C2C1 [Example 6]	99.88
COC(=O)[C@H](c1ccccc1Cl)N1CC[C@@H]2SC(=O)C=C2C1 (racemic) [Comparative preparation example 2, reference compound]	93.89
COC(=O)[C@H](c1ccccc1Cl)N1CC[C@@H]2SC(=O)C=C2C1 [Example 7]	99.84
COC(=O)[C@H](c1ccccc1Cl)N1CC[C@@H]2SC(=O)C=C2C1 (racemic) [Comparative preparation example 1, reference compound]	94.37
COC(=O)[C@H](c1ccccc1Cl)N1CC[C@@H]2SC(=O)C=C2C1 [Example 3]	99.88
COC(=O)[C@H](c1ccccc1Cl)N1CC[C@@H]2SC(=O)C=C2C1 (racemic) [Comparative preparation example 3, reference compound]	95.23
COC(=O)[C@H](c1ccccc1Cl)N1CC[C@@H]2SC(=O)C=C2C1 [Example 1]	99.77
COC(=O)[C@H](c1ccccc1Cl)N1CC[C@@H]2SC(=O)C=C2C1 [Example 2]	99.84

The recorded HPLC purity Day 10 (%) for COC(=O)[C@H](c1ccccc1Cl)N1CC[C@@H]2SC(=O)C=C2C1 [Example 4] is 99.86

The recorded HPLC purity Day 10 (%) for COC(=O)[C@H](c1ccccc1Cl)N1CC[C@@H]2SC(=O)C=C2C1 [Example 5] is 99.85

====

- protocol_text: Stability investigation of the crystalline forms (HPLC purity, samples placed open and flat)
- Type: physicochemical
- study_conditions: light (4500 Lux), Day 10
result_type: HPLC purity Day 10 (%)
Quick note: give the figure in %, leave out the unit.

Recorded HPLC purity Day 10 (%), per entry:
COC(=O)[C@H](c1ccccc1Cl)N1CC[C@@H]2SC(=O)C=C2C1 [Example 1]	99.82
COC(=O)[C@H](c1ccccc1Cl)N1CC[C@@H]2SC(=O)C=C2C1 [Example 5]	99.86
COC(=O)[C@H](c1ccccc1Cl)N1CC[C@@H]2SC(=O)C=C2C1 [Example 3]	99.94

The recorded HPLC purity Day 10 (%) for COC(=O)[C@H](c1ccccc1Cl)N1CC[C@@H]2SC(=O)C=C2C1 (racemic) [Comparative preparation example 2, reference compound] is 96.27

====

- protocol_text: Stability investigation of the crystalline forms (HPLC purity, samples placed open and flat)
- Assay type: physicochemical
- study_conditions: high humidity of 90%, Day 0
Listing: HPLC purity Day 0 (%) of selected compounds
Quick note: give the figure in %, leave out the unit.

Recorded HPLC purity Day 0 (%), per entry:
COC(=O)[C@H](c1ccccc1Cl)N1CC[C@@H]2SC(=O)C=C2C1 (racemic) [Comparative preparation example 2, reference compound]	96.43
COC(=O)[C@H](c1ccccc1Cl)N1CC[C@@H]2SC(=O)C=C2C1 (racemic) [Comparative preparation example 3, reference compound]	97.73

The recorded HPLC purity Day 0 (%) for COC(=O)[C@H](c1ccccc1Cl)N1CC[C@@H]2SC(=O)C=C2C1 [Example 1] is 99.82

The recorded HPLC purity Day 0 (%) for COC(=O)[C@H](c1ccccc1Cl)N1CC[C@@H]2SC(=O)C=C2C1 [Example 6] is 99.91

The recorded HPLC purity Day 0 (%) for COC(=O)[C@H](c1ccccc1Cl)N1CC[C@@H]2SC(=O)C=C2C1 [Example 3] is 99.94

The recorded HPLC purity Day 0 (%) for COC(=O)[C@H](c1ccccc1Cl)N1CC[C@@H]2SC(=O)C=C2C1 [Example 2] is 99.92
